assay: MTT toxicity assay on human hepatocytes (TC50)
CC50 values, listed per item
Answer in µM, number only, no unit symbol.

Which CC50 is reported for this molecule? COc1cc(C(O)C(C)Oc2c(OC)cc(-c3ccccc3)cc2OC)cc(OC)c1OC (centres unmarked) [drawing 78]
50

Which CC50 is reported for this molecule? COc1cc(C(O)C(C)Oc2c(OC)cc(C)cc2OC)cc(OC)c1OC (centres unmarked) [drawing 77]
125

====

CC50 values, listed per item
assay: MTT toxicity assay reported with the erythrocytic stage (TC50), cells not named; type: cell-based; conditions: 50% toxic concentration, read-out: TC50 (µM) Erythrocytic stage P. falciparum
Mention the unit after the number when you answer.

Check out these entries, answers already filled in.
COc1cc(C)cc(OC)c1OC(C)C(O)c1ccc2c(c1)OC(F)(F)O2 (centres unmarked) [drawing 72] = 57 µM
COc1cc(C(O)C(C)Oc2c(OC)cc(-c3ccccc3)cc2OC)cc(OC)c1OC (centres unmarked) [drawing 79] = 50 µM
COc1cc(C(O)C(C)Oc2c(OC)cccc2OC)cc(OC)c1OC (centres unmarked) [drawing 74] = 58 µM
COc1cc(C)cc(OC)c1OC(C)C(O)c1ccc2c(c1)OC(F)(F)O2 (centres unmarked) [drawing 73] = 53.7 µM

Which CC50 is reported for this compound? COc1cc(C(O)C(C)Oc2c(OC)cc(-c3ccccc3)cc2OC)cc(OC)c1OC (centres unmarked) [drawing 78]
50 µM

====

assay: MTT toxicity assay reported with the erythrocytic stage (TC50), cells not named; assay type: cell-based; conditions: 50% toxic concentration, read-out: TC50 (µM) Erythrocytic stage P. falciparum
measurement.kind: CC50 (µM)
Answer in µM, number only, no unit symbol.

Check out these entries, answers already filled in.
COc1cc(C(O)C(C)Oc2c(OC)cc(C)cc2OC)cc(OC)c1OC (stereo not shown) [drawing 77] = 49.5
COc1cccc(OC)c1OC(C)C(O)c1ccc2c(c1)OC(F)(F)O2 (stereo not shown) [drawing 70] = 55
COc1cccc(OC)c1OC(C)C(O)c1ccc2c(c1)OC(F)(F)O2 (stereo not shown) [drawing 71] = 53

Which CC50 is reported for this compound? COc1cc(C(O)C(C)Oc2c(OC)cc(C)cc2OC)cc(OC)c1OC (stereo not shown) [drawing 76]
47

====

assay: in vitro; conditions: human, TC50 (µM) Hepatic stage (rodent) P. yoelii, 50% toxic concentration, MTT assay
measurement.kind: CC50 (µM)
Answer in µM, number only, no unit symbol.

Check out these entries, answers already filled in.
COc1cc(C(O)C(C)Oc2c(OC)cc(C)cc2OC)cc(OC)c1OC (centres unmarked) [drawing 76] = 47
COc1cc(NC(C)CCCN)c2ncccc2c1 (centres unmarked) [Primaquine, reference compound] = 12.6
COc1cccc(OC)c1OC(C)C(O)c1ccc2c(c1)OC(F)(F)O2 (centres unmarked) [drawing 70] = 54.9

Next molecule, please.
Which CC50 is reported for this molecule? COc1cc(C)cc(OC)c1OC(C)C(O)c1ccc2c(c1)OC(F)(F)O2 (centres unmarked) [drawing 72]
56.8

====

test system: P. falciparum; experiment: In vitro activity against hepatic stage of P. falciparum in primary human hepatocytes (liver-schizont count); assay type: cell-based, P. falciparum (NF54 strain); conditions: cultures arrested at 6 days
IC50 values, listed per item
Answer in µM, number only, no unit symbol.

COc1cc(C(O)C(C)Oc2c(OC)cc(-c3ccccc3)cc2OC)cc(OC)c1OC (centres unmarked) [drawing 79] = 0.007

Next compound, please.
Which IC50 is reported for this compound? COc1cc(C(O)C(C)Oc2c(OC)cc(-c3ccccc3)cc2OC)cc(OC)c1OC (centres unmarked) [drawing 78]
0.02
